Target: T1, MutS (Escherichia coli, UniProt P23909 1-853)
T1 sequence: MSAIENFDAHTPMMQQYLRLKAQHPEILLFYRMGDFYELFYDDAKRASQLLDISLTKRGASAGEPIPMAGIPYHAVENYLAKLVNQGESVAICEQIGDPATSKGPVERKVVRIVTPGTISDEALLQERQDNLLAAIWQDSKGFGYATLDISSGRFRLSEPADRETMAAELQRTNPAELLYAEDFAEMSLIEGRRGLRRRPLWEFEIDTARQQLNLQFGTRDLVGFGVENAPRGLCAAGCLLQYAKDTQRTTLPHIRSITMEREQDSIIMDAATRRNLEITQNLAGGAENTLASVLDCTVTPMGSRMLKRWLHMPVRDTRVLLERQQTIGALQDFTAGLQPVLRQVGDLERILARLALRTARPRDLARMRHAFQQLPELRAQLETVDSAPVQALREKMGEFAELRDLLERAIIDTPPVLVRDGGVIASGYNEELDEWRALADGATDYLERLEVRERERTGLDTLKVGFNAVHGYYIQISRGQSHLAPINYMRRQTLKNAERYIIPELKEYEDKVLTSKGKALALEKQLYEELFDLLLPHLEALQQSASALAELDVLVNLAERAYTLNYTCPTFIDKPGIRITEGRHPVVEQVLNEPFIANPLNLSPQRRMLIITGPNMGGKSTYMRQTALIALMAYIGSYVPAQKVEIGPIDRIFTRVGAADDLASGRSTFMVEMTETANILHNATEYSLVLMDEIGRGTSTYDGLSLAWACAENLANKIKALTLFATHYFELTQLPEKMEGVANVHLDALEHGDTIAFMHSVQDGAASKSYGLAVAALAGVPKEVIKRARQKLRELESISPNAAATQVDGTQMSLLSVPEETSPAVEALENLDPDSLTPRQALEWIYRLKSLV
Assay: stopped-flow FRET kinetics

| BINDER | Kd |
| --- | --- |
| 30-GT (dsDNA) DNA 1: AACTGCCAGGCACCAGTGTCAGCGTCGTAT DNA 2: ATACGACGCTGACACTGGTGCTTGGCAGTT | 91 nM |
| 30-1ΔT (dsDNA) DNA 1: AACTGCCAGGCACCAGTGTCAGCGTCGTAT DNA 2: ATACGACGCTGACACTGGTGCCTTGGCAGTT | 91 nM |
